For each of the compounds below, state its pIC50.
- target: human EP1 receptor (Homo sapiens, UniProt P34995)
- Construct: expressed in transfected cells
- Sequence (P34995 1-402): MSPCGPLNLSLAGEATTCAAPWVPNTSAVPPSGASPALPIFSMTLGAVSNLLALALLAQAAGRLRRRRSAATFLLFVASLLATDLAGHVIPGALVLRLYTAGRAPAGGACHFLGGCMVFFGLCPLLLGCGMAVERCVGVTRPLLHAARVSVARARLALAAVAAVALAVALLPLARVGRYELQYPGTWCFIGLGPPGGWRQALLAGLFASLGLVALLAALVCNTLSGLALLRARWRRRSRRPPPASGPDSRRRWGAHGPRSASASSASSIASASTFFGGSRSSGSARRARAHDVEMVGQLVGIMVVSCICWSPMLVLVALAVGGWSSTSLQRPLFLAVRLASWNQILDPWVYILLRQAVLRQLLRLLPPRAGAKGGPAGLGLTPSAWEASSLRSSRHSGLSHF
- test: Antagonist activity using cells expressing human EP1 receptor (SRE-luciferase reporter activity, PGE2 10 nM)
- Format: cell-based
- study-conditions: HEK293 cells stably expressing human EP1 receptor, 6 hours, read-out: IC50 value in the measurement of antagonist activity using human EP1 receptor expressing cells
pIC50: −log10 of the molar value.

Sample records with pIC50:
> print(dat)
                                   compound                                    target  test.readout        result
1  N#Cc1ccc2c(-c3ccccc3)nn(-c3nc(C(=O)O)cs3)c2c1 [Exp. 118]  human EP1 receptor (Homo sapiens, UniProt P34995)         pIC50  7.00 to 7.70
2  O=C(O)c1csc(-n2nc(-c3ccccc3)c3ccc(NCc4cccnc4)cc32)n1 [Exp. 149]  human EP1 receptor (Homo sapiens, UniProt P34995)         pIC50  6.30 to 7.00
3  O=C(O)c1csc(-n2nc(-c3ccccc3)c3ccc(NCc4ccc(F)cc4)cc32)n1 [Exp. 147]  human EP1 receptor (Homo sapiens, UniProt P34995)         pIC50  6.30 to 7.00
4  O=C(O)c1csc(-n2nc(-c3ccccc3)c3ccc(Sc4cccc(O)c4)nc32)n1 [Exp. 178]  human EP1 receptor (Homo sapiens, UniProt P34995)         pIC50  7.00 to 7.70
5  CCC(C)CNc1ccc2c(-c3ccccc3)nn(-c3nc(C(=O)O)cs3)c2c1 (stereo not shown) [Exp. 151]  human EP1 receptor (Homo sapiens, UniProt P34995)         pIC50  6.30 to 7.00
6  O=C(O)c1csc(-n2nc(-c3cccc(O)c3)c3ccccc32)n1 [Exp.16]  human EP1 receptor (Homo sapiens, UniProt P34995)         pIC50  7.00 to 7.70
7  C=Cc1ccc2c(-c3ccccc3)nn(-c3nc(C(=O)OCC)cs3)c2c1 [Exp.116]  human EP1 receptor (Homo sapiens, UniProt P34995)         pIC50  7.00 to 7.70
8  Cn1cncc1C(=O)Nc1ccc2c(-c3ccccc3)nn(-c3nc(C(=O)O)cs3)c2c1 [Exp. 130]  human EP1 receptor (Homo sapiens, UniProt P34995)         pIC50  6.30 to 7.00

// each listed compound needs a value for pIC50
1. O=C(O)c1csc(-n2nc(-c3ccccc3)c3ccc(NC(=O)C4CCCC4)cc32)n1 [Exp. 131]
2. CC(C)C(C)Sc1ccc2c(-c3ccccc3)nn(-c3nc(C(=O)O)cs3)c2n1 (stereo not shown) [Exp. 166]
3. CC(C)S(=O)(=O)Nc1ccc2c(-c3ccccc3)nn(-c3nc(C(=O)O)cs3)c2c1 [Exp. 141]
4. O=C(O)c1csc(-n2nc(-c3ccccc3)c3ccc(Sc4ccc(OC(F)(F)F)cc4)nc32)n1 [Exp.177]
5. CC(=O)Nc1ccc2c(-c3ccccc3)nn(-c3nc(C(=O)O)cs3)c2c1 [Exp.122]
6. O=C(O)c1csc(-n2nc(-c3ccccc3)c3ccc(Sc4ccccc4F)nc32)n1 [Exp. 175]
7. C/C=C\c1ccc2c(-c3ccccc3)nn(-c3nc(C(=O)O)cs3)c2c1 [Exp. 160]
8. O=C(O)c1csc(-n2nc(C3=CCCCO3)c3ccc(C(F)(F)F)cc32)n1 [Exp.105]

A:
1: 6.30 to 7.00; 2: 6.30 to 7.00; 3: 6.30 to 7.00; 4: 6.30 to 7.00; 5: 6.30 to 7.00; 6: 7.00 to 7.70; 7: ≥ 7.70; 8: ≥ 7.70

FYI, the data here is from patent US7994202B2.
